Test: Approximate solubility in different solvents at RT
Type: physicochemical
Conditions: ACN, organic solvent or mixture, thermodynamic from solid, RT
PROPERTY: solubility

Request the reported solubility associated with N#Cc1ccc(COc2cccc(C3CCN(Cc4nc5ccc(C(=O)O)cc5n4Cc4cncs4)CC3)n2)c(F)c1 [Freeform Type A] 1000 to 1900 µg/mL

* * *

Assay: Approximate solubility in different solvents at RT
Type: physicochemical
Conditions: Toluene, organic solvent or mixture, thermodynamic from solid, RT
PROPERTY: solubility

Request the reported solubility associated with N#Cc1ccc(COc2cccc(C3CCN(Cc4nc5ccc(C(=O)O)cc5n4Cc4cncs4)CC3)n2)c(F)c1 [Freeform Type A] < 1100 µg/mL

* * *

Assay: Solid state stability at 25° C./60% RH and 40° C./75% RH for 1 week
Assay type: physicochemical
Conditions: 40° C./75% RH, 1 week
Where a name gives a salt, the structure may show the parent alone.
What HPLC peak Area, RRT 0.99 was measured for each of the following?

N#Cc1ccc(COc2cccc(C3CCN(Cc4nc5ccc(C(=O)O)cc5n4Cc4cncs4)CC3)n2)c(F)c1 [Meglumine salt Type A] ... <0.05%
N#Cc1ccc(COc2cccc(C3CCN(Cc4nc5ccc(C(=O)O)cc5n4Cc4cncs4)CC3)n2)c(F)c1 [Tris salt Type C] ... <0.05%
N#Cc1ccc(COc2cccc(C3CCN(Cc4nc5ccc(C(=O)O)cc5n4Cc4cncs4)CC3)n2)c(F)c1 [Fumarate Type A] ... <0.05%

Consider the record given below.
Request the reported HPLC peak Area, RRT 0.99 associated with N#Cc1ccc(COc2cccc(C3CCN(Cc4nc5ccc(C(=O)O)cc5n4Cc4cncs4)CC3)n2)c(F)c1 [Potassium salt Type A] <0.05%

* * *

Assay: Kinetic solubility in water and bio-relevant media (SGF, FaSSIF, FeSSIF) at 37° C.
Format: physicochemical
Conditions: FaSSIF, 37° C., 24 hrs; calculated by freeform
Where a name gives a salt, the structure may show the parent alone.
PROPERTY: S: Solubility (mg/mL)
Numbers only, in mg/mL.

N#Cc1ccc(COc2cccc(C3CCN(Cc4nc5ccc(C(=O)O)cc5n4Cc4cncs4)CC3)n2)c(F)c1 [Meglumine salt Type A] ... 0.07
N#Cc1ccc(COc2cccc(C3CCN(Cc4nc5ccc(C(=O)O)cc5n4Cc4cncs4)CC3)n2)c(F)c1 [Freeform Type C] ... 0.003
N#Cc1ccc(COc2cccc(C3CCN(Cc4nc5ccc(C(=O)O)cc5n4Cc4cncs4)CC3)n2)c(F)c1 [Tris salt Type C] ... 0.04

Consider the record given below.
Request the reported S: Solubility associated with N#Cc1ccc(COc2cccc(C3CCN(Cc4nc5ccc(C(=O)O)cc5n4Cc4cncs4)CC3)n2)c(F)c1 [Potassium salt Type A] 0.029

* * *

Assay: Approximate solubility in different solvents at RT
Type: physicochemical
Conditions: CPME, organic solvent or mixture, thermodynamic from solid, RT
PROPERTY: solubility

Request the reported solubility associated with N#Cc1ccc(COc2cccc(C3CCN(Cc4nc5ccc(C(=O)O)cc5n4Cc4cncs4)CC3)n2)c(F)c1 [Freeform Type A] 1100 to 2100 µg/mL

* * *

Test: Hygroscopicity by DVS at 25° C.
Type: physicochemical
Conditions: after DVS test
Where a name gives a salt, the structure may show the parent alone.
PROPERTY: form change after DVS test (XRPD)

N#Cc1ccc(COc2cccc(C3CCN(Cc4nc5ccc(C(=O)O)cc5n4Cc4cncs4)CC3)n2)c(F)c1 [Meglumine salt Type A] ... no form change
N#Cc1ccc(COc2cccc(C3CCN(Cc4nc5ccc(C(=O)O)cc5n4Cc4cncs4)CC3)n2)c(F)c1 [Tris salt Type C] ... no form change
N#Cc1ccc(COc2cccc(C3CCN(Cc4nc5ccc(C(=O)O)cc5n4Cc4cncs4)CC3)n2)c(F)c1 [Freeform Type C] ... no form change
N#Cc1ccc(COc2cccc(C3CCN(Cc4nc5ccc(C(=O)O)cc5n4Cc4cncs4)CC3)n2)c(F)c1 [Fumarate Type A] ... no form change

Consider the record given below.
Request the reported form change after DVS test (XRPD) associated with N#Cc1ccc(COc2cccc(C3CCN(Cc4nc5ccc(C(=O)O)cc5n4Cc4cncs4)CC3)n2)c(F)c1 [Potassium salt Type A] no form change

Data origin, for the record: patent US20240360122A1
